The measurements presented in this section are drawn from the supplement of paper PMC10567573.

Can you tell me protein stability index for the items I'm about to list?
B1: PDZK1 (parent)
chain: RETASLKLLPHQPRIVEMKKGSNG

Variants of: B1
Assay: protein stability index of a GFP-peptide fusion (GPS, HEK-293T) (PSI 1-6); higher = more stable;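 further: lentivirally expressed fusions sorted by FACS into six bins by GFP to DsRed ratio, PSI derived from sequencing read proportions per bin multiplied by bin number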
Conditions: c terminus: a fixed tail appended
Please reply with the value in numeric form only.

Ask: Annotate the variant K20Y with its measured protein stability index.
Reply: 3.62

Ask: Quick one: give measured protein stability index for A4Y
Reply: 3.19

Ask: # return recorded protein stability index for input H11R
Reply: 3.35

Ask: In one line, give reported protein stability index of the entry A4D .
Reply: 3.15

Ask: Give a short answer stating reported protein stability index for M18Y .
Reply: 3.91

Ask: Look up and report measured protein stability index for this entry: N23I
Reply: 3.24

Ask: Answer with the recorded protein stability index for the variant listed here: P10Y
Reply: 2.99

Ask: // Input: I15M . Output its protein stability index only.
Reply: 3.89

Ask: Determine its reported protein stability index: R1A
Reply: 3.58

Ask: Complete the entry with protein stability index for T3S
Reply: 3.62

Ask: Return value of protein stability index for input R14D , no commentary.
Reply: 4.61

Ask: Quick one: give measured protein stability index for P13V
Reply: 4.14

Ask: Identify protein stability index associated with the variant R1T
Reply: 2.98

Ask: Hello, please tell me recorded protein stability index for this one: R1V
Reply: 3.14

Ask: Using the record for L6R , state its measured protein stability index.
Reply: 3.37

Ask: Indicate its recorded protein stability index; the variant in question is K7W
Reply: 2.72

Ask: Give a short answer stating reported protein stability index for E2V .
Reply: 2.62

Ask: Using known records, supply protein stability index for G24S
Reply: 3.99

Ask: Using known records, supply protein stability index for E17Q
Reply: 2.92

Ask: Name the recorded protein stability index of the item G21N in your answer.
Reply: 3.43

Ask: Give the reported value of protein stability index for this record: K19N
Reply: 3.28

Ask: Report protein stability index for H11A
Reply: 2.57
